Protocol Details: Study 200912: single dose 100-200 mg, SDD versus nonmicronized API PiB, healthy subjects
Format: in vivo, human
Condition Notes: human, plasma, oral, 100 mg, single 100 mg SDD PiB, fasted, without ritonavir, Study 200912; median (range); read-out: C24
Method: This was a double‐blind, randomized, placebo‐controlled, single‐dose escalation study to investigate the safety, tolerability, and PK of higher single doses of GSK2838232 (Part A) and to evaluate the relative bioavailability of the SDD and crystalline Active Pharmaceutical Ingredient (API) of GSK2838232 (Part B) in healthy subjects dosed as PiB. […] Extracts were analyzed using HPLC (Shimadzu, Nexera, 30 series) and tandem mass spectrometry detection (HPLC‐MS/MS). […]
Value Type: concentration at 24 h
Hey, just the number and the unit after it is fine.

The recorded concentration at 24 h for entry CC(C)C1=C2[C@H]3CC[C@@H]4[C@@]5(C)CC[C@H](OC(=O)CC(C)(C)C(=O)O)C(C)(C)[C@@H]5CC[C@@]4(C)[C@]3(C)CC[C@@]2([C@@H](O)CN(CCN(C)C)Cc2ccc(Cl)cc2)CC1=O equals 3.87 ng/mL
